Recorded values, source ChEMBL document CHEMBL1932946.

Listed here: items and their measured logP at 24 h.
- ASSAY_PROCEDURE: Octanol-phosphate buffer partition coefficient, log P of the compound at 5 mg after 24 hrs by UV spectroscopic analysis
- Type: physicochemical
Form field (numeric): enter value without unit.

Reference set (6 entries):
                                 mol_smiles  numeric_readout
0  S=C(N/N=C/c1ccc(Oc2ccc3c(c2)OCO3)cc1)Nc1ccccc1              4.8
1  S=C(N/N=C/c1ccc(Oc2ccc3ccccc3c2)cc1)Nc1ccc(Br)cc1             6.93
2  S=C(N/N=C/c1ccc(Oc2ccc(Cl)cc2)cc1)Nc1ccccc1             5.52
3  S=C(N/N=C/c1ccc(Oc2ccc3ccccc3c2)cc1)Nc1ccc(Cl)cc1             6.96
4  Fc1ccc(Oc2ccc(/C=N/NC(=S)Nc3ccc(Br)cc3)cc2)cc1             5.82
5  S=C(N/N=C/c1ccc(Oc2ccc(Cl)cc2)cc1)Nc1ccc(Br)cc1             6.24

Incoming: Need logP at 24 h, item S=C(N/N=C/c1ccc(Oc2ccc(Br)cc2)cc1)Nc1ccc(Br)cc1
Outgoing: 6.53

Incoming: Need logP at 24 h, item Fc1ccc(NC(=S)N/N=C/c2ccc(Oc3ccc(Cl)cc3)cc2)cc1
Outgoing: 5.78

Incoming: Need logP at 24 h, item S=C(N/N=C/c1ccc(Oc2ccccc2)cc1)Nc1ccccc1
Outgoing: 4.9
